Organism: Rattus norvegicus
Assay Overview: Open TG-GATES - Regimen: Daily Repeat
Type: toxicity, organism-based, Sprague-Dawley
Design: regimen Daily Repeat, gender Male, age 6 weeks
Test Conditions: in vivo, po, 1000 mg/kg, […], tissue Blood, route gavage, dose level High, time 7 day
Measure Name: Fbg (mg/dL)
Give just the number in mg/dL; leave the unit off.

CC(=O)[C@@]1(O)CC[C@H]2[C@@H]3C=C(Cl)C4=CC(=O)CC[C@]4(C)[C@H]3CC[C@@]21C [CHLORMADINONE]	327.6

Kindly note the recorded Fbg for CCCCNC(=O)NS(=O)(=O)c1ccc(C)cc1 [TOLBUTAMIDE] , which is 267.4

Kindly note the recorded Fbg for CC(S)C(=O)NCC(=O)O (centres undefined) [TIOPRONIN] , which is 297

Kindly note the recorded Fbg for O=C(O)c1ccccc1Nc1ccccc1 [FENAMIC ACID] , which is 290.7
